assay.protocol: Inhibition of [3H]25-6981 binding to N-methyl-D-aspartate glutamate receptor 2B of rat brain
value.kind: Ki

Challenge: Given the entry COc1cc2c(cc1OC)CN(c1ccncc1)CC2 , report its measured Ki.
Response given: 28000 nM

Challenge: Fill blank: measured Ki of the compound c1ccc2c(c1)CCN(c1ccncc1)C2 is ____.
Response given: 8 nM

Challenge: Entry under review: Cc1cc(N2CCc3ccccc3C2)c2ccccc2n1 . Reported Ki?
Response given: 75 nM

Challenge: Fill blank: measured Ki of the compound Clc1cccc2c1CN(c1ccncc1)CC2 is ____.
Response given: 26 nM

Challenge: Given the entry OCCNc1cc(N2CCc3ccccc3C2)nc2ccccc12 , report its measured Ki.
Response given: 3.5 nM

Challenge: Reported Ki, compound c1ccc2c(c1)CCN(c1ccnc3ccccc13)C2 : ____
Response given: 29 nM

Challenge: Consider the compound shown here: CC1CN(c2ccncc2)Cc2ccccc21 (configuration not stated) What is its recorded Ki?
Response given: 25 nM

* * *

target.or.system: Muscarinic acetylcholine receptor M1 (Rattus norvegicus, UniProt P08482)
Sequence (P08482 whole entry): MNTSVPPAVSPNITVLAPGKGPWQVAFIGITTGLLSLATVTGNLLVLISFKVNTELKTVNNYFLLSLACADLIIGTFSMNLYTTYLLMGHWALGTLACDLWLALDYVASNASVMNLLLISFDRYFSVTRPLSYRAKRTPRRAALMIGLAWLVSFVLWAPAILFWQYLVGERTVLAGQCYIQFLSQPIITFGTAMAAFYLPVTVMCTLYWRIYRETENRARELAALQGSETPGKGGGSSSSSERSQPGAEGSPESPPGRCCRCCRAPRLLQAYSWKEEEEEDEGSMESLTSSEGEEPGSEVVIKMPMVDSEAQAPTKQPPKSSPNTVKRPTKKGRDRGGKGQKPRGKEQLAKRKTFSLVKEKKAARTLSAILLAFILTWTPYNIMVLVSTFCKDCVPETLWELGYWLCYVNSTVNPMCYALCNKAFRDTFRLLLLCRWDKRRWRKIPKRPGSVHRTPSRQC
assay.protocol: Binding affinity towards muscarinic acetylcholine receptor M1 in […] using [3H]pirenzepine as radioligand
Field: pKi. Provide a value for each of the compounds that follow.
Just so you know, pKi here is -log10 of the concentration in molar units; reply with that number alone.

Challenge: Given Clc1ccc2c(c1)CN(c1ccncc1)CC2 , state its recorded pKi.
Response given: 6.00

Challenge: Sample c1ccc2c(c1)CCN(c1ccnc3ccccc13)C2 — what was its pKi?
Response given: 5.59

Challenge: Looking for the measured pKi of CC1CN(c2ccncc2)Cc2ccccc21 (stereo unspecified) , can you help?
Response given: 6.05

Challenge: What pKi value was documented for this compound, c1ccc2c(c1)CCN(c1ccncc1)C2 ?
Response given: 6.14

Challenge: Field request: pKi | item: Clc1cccc2c1CN(c1ccncc1)CC2
Response given: 6.19

Challenge: Using the record for Clc1cccc2c1CCN(c1ccncc1)C2 , report its pKi.
Response given: 6.18

* * *

System: Mus musculus
assay.protocol: In vivo effective dose in mice after intraperitoneal administration using standard sound induced seizures assay
Assay type: functional
condition.set: ip
Would you mind telling me the reported ED50 of each entry?
Enter your answer as a number in mg/kg; do not include the unit.

Challenge: Give Mus musculus ED50 for c1ccc2c(c1)CCN(c1ccncc1)C2
Response given: 3

Challenge: Record OCCNc1ccnc(N2CCc3ccccc3C2)c1 : what is its ED50 with Mus musculus?
Response given: 13

Challenge: Provide value of ED50 for this record tested with Mus musculus: c1ccc2c(c1)CCN(c1ccnc3ccccc13)C2
Response given: 25

Challenge: Mus musculus / ED50 / Cc1cc(N2CCc3ccccc3C2)cc(NCCO)n1 : value?
Response given: 18

Challenge: Tell me reported ED50 for C[C@@H]([C@H](O)c1ccc(O)cc1)N1CCC(Cc2ccccc2)CC1 [(R,S)-IFENPRODIL] , tested with Mus musculus.
Response given: 16

Challenge: API: value(readout=ED50, system=Mus musculus) for record Clc1cccc2c1CCN(c1ccncc1)C2
Response given: 2
